Listed next: entries and their corresponding EC50.
# Assay Target: P2Y purinoceptor 1 (Homo sapiens)
# Sequence (P47900 whole entry): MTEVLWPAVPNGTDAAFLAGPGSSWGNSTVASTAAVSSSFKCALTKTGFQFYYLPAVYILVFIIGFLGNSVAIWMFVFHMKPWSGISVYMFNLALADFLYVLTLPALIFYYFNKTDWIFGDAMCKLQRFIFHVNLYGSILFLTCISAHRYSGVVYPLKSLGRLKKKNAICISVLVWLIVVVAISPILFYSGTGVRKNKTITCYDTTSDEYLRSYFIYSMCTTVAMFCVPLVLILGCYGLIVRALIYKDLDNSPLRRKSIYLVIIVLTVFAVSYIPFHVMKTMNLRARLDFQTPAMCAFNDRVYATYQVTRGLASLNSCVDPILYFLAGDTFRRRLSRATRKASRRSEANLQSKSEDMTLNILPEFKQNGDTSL
# Test Name: Agonist activity at human cloned P2Y1 receptor expressed in human 1321N1 by FLIPR assay

Some solved entries appear below for comparison.
| Molecule | EC50 |
| --- | --- |
| O=c1ccn([C@@H]2O[C@H](COP(=O)(O)OP(=O)(O)OP(=O)(O)O)[C@@H](O)[C@H]2O)c(=O)[nH]1 [URIDINE TRIPHOSPHATE] | > 2 µM |
| O=P(O)(O)OP(=O)(O)OP(=O)(O)OC[C@H]1O[C@@H](c2nc3c(F)cc(Cl)cc3s2)[C@H](O)[C@@H]1O | > 20 µM |
| O=P(O)(O)OP(=O)(O)OP(=O)(O)OC[C@H]1O[C@@H](c2nc3ccccc3s2)[C@H](O)[C@@H]1O | > 20 µM |

Qu. # input molecule: O=P(O)(O)OP(=O)(O)OP(=O)(O)OC[C@H]1O[C@@H](c2nc3cc(C(F)(F)F)ccc3s2)[C@H](O)[C@@H]1O ; wanted: its EC50
Ans. > 20 µM

---

# Test Name: Metabolic stability in human bronchial epithelial cells after 120 mins
# Assay type: ADME, cell-based, Epithelial cell
# Recorded Conditions: read-out: Stability
Parameter Measured: remaining at 2 h (%)

| Smiles Entry | remaining at 2 h (%) |
| --- | --- |
| O=c1c2cc(F)ccc2ccn1[C@@H]1O[C@H](COP(=O)(O)OP(=O)(O)OP(=O)(O)O)[C@@H](O)[C@H]1O | 70 |
| O=P(O)(O)OP(=O)(O)OP(=O)(O)OC[C@H]1O[C@@H](c2nc3ccccc3s2)[C@H](O)[C@@H]1O | 50 |

---

# Test Name: Metabolic stability in human bronchial epithelial cells after 180 mins
# Assay type: ADME, cell-based, Epithelial cell
# Recorded Conditions: read-out: Stability
Parameter Measured: remaining at 3 h (%)

(I) O=P(O)(O)OP(=O)(O)OP(=O)(O)OC[C@H]1O[C@@H](c2nc3ccccc3s2)[C@H](O)[C@@H]1O
(II) O=c1c2cc(F)ccc2ccn1[C@@H]1O[C@H](COP(=O)(O)OP(=O)(O)OP(=O)(O)O)[C@@H](O)[C@H]1O
Qu. Which numeric remaining at 3 h is bigger, that of I or that of II ? Please identify the chosen entry by its label.
Ans. II

---

# Assay Target: P2Y purinoceptor 2 (Homo sapiens)
# Sequence (P41231 whole entry): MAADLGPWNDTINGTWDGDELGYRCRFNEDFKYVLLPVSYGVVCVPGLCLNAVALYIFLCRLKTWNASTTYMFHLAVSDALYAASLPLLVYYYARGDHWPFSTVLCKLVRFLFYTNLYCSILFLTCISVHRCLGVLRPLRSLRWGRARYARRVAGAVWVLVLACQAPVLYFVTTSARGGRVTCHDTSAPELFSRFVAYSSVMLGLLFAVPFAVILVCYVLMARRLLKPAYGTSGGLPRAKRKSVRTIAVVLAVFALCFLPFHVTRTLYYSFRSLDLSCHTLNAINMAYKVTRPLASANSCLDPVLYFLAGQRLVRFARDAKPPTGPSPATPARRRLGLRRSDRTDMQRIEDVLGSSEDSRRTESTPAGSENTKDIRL
# Test Name: Agonist activity at human P2Y2 receptor expressed in human 1321N1 by FLIPR assay
Parameter Measured: EC50 (nM)

(a) O=P(O)(O)OP(=O)(O)OP(=O)(O)OC[C@H]1O[C@@H](c2nc3c(F)cc(Cl)cc3s2)[C@H](O)[C@@H]1O
(b) Cn1c([C@@H]2O[C@H](COP(=O)(O)OP(=O)(O)OP(=O)(O)O)[C@@H](O)[C@H]2O)nc2ccccc21
(c) COc1ccc2nc([C@@H]3O[C@H](COP(=O)(O)OP(=O)(O)OP(=O)(O)O)[C@@H](O)[C@H]3O)sc2c1
Qu. Sequence the entries by EC50, beginning with the highest number. Answer by listing the labels in the order asked for.
Ans. b, c, a
